# experimental details: Single dose, open-label food effect pharmacokinetic trial of oral capsules in healthy subjects
# Assay type: in vivo, human
# condition notes: human, plasma, po, oral capsules, healthy subjects; typical value of compartmental NONMEM analysis; read-out: Relative bioavailability, Fasted (relative to normal-fat meal)
recorded endpoint: bioavailability (%)
Write the answer as a number in %, unit excluded.

**Q:** Could you tell me which bioavailability is on file for O=C(CC(c1ccccc1)c1ccccc1)N1CCN(C(c2ccccc2)c2ccccc2)CC1 ?
**A:** 68.2

----------
# experimental details: Single dose, open-label food effect pharmacokinetic trial of oral capsules in healthy subjects
# Type: in vivo, human
# condition notes: human, plasma, po, healthy subjects; typical value; read-out: Relative bioavailability, 25-mg capsules (relative to 100-mg capsules)
recorded endpoint: bioavailability (%)
Supply the numeric figure in %, leaving out any unit text.

**Q:** Item O=C(CC(c1ccccc1)c1ccccc1)N1CCN(C(c2ccccc2)c2ccccc2)CC1 [Compound No. 1] has what recorded bioavailability?
**A:** 148

----------
# experimental details: Single dose, open-label food effect pharmacokinetic trial of oral capsules in healthy subjects
# Format: in vivo, human
# condition notes: human, plasma, po, oral administration, subjects fed a normal fat meal
recorded endpoint: Tmax

**Q:** // lookup Tmax for O=C(CC(c1ccccc1)c1ccccc1)N1CCN(C(c2ccccc2)c2ccccc2)CC1 [Compound No. 1]
**A:** 2 to 5 h

----------
# experimental details: Single dose, open-label food effect pharmacokinetic trial of oral capsules in healthy subjects
# Format: in vivo, human
# condition notes: human, plasma, po, oral administration, subjects fasted
recorded endpoint: Tmax

**Q:** Item under review: O=C(CC(c1ccccc1)c1ccccc1)N1CCN(C(c2ccccc2)c2ccccc2)CC1 . Reported Tmax?
**A:** < 2 h

----------
# experimental details: Single dose, open-label food effect pharmacokinetic trial of oral capsules in healthy subjects
# Type: in vivo, human
# condition notes: human, plasma, po, oral administration, subjects fed a high fat meal
recorded endpoint: Tmax

**Q:** I'd like to know its Tmax. The molecule in question is O=C(CC(c1ccccc1)c1ccccc1)N1CCN(C(c2ccccc2)c2ccccc2)CC1
**A:** 4 to 5 h
